The reported measurements were obtained from PubChem BioAssay (Tox21).

# Test description: qHTS assay to identify small molecule antagonists of the estrogen receptor beta (ER-beta) signaling pathway - cell viability counter screen (AID 1259382); note: nearly all actives have a fitted effect of over 55% in size
# Test settings: ER-beta-UAS-bla HEK293T viability, CellTiter-Glo luminescence, 16 h; series mostly up to 92.4 µM
Inconclusive results are not listed. The source made the active and inactive calls. Calls come from the whole dose curve; as a rule, active = well fitted cell-killing curve with a large enough effect in the repeat runs; inconclusive = weak or mixed curves; inactive = flat fitted curve, though single readings scatter.
The reply should be one of these categories: active, inactive

O=S1(=O)CC(Cl)(Cl)C(Cl)(Cl)C1 :: active

Q: Would you mind telling me which call this test gave COC(=O)C1=C(C)NC(C)=C(C(=O)OCC(C)C)C1c1ccccc1[N+](=O)[O-] (stereo unspecified) ?
Result: inactive

Q: CCCCCOC(=O)CCCC , same question.
Result: inactive

Q: CCCC(c1cc(C(C)(C)C)c(O)cc1C)c1cc(C(C)(C)C)c(O)cc1C , same question.
Result: active

Q: CCOC(=O)c1nc(C(Cl)(Cl)Cl)n(-c2ccc(Cl)cc2Cl)n1 , same question.
Result: active

Q: CCN(CC)CCNC(=O)c1c(C)[nH]c(/C=C2\C(=O)Nc3ccc(F)cc32)c1C , same question.
Result: active

----------
# Test description: qHTS assay to identify small molecule agonists of the estrogen receptor alpha (ER-alpha) signaling pathway in the presence of an antagonist - cell viability counter screen (AID 1259386);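 note: cells exposed to compounds for 22 h at 37 °C before the viability read; nearly all actives have a fitted effect of over 30% in size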
# Test settings: VM7Luc4E2 viability, CellTiter-Fluor fluorescence, 22 h; series mostly up to 92.4 µM
# From the text: National Center for Advancing Translational Sciences [NCATS] NIH Chemical Genomics Center [NCGC] U.S. Environmental Protection Agency [EPA] National Institutes of Environmental Health Sciences [NIEHS] National Toxicology Program [NTP] U.S. Food and Drug Administration [FDA] Estrogen receptor (ER), a member of nuclear hormone receptor plays an important role in development, metabolic homeostasis and reproduction. […]
Inconclusive results are not listed. Activity calls are given as the source filed them. Calls come from the whole dose curve; as a rule, active = well fitted cell-killing curve with a large enough effect in the repeat runs; inconclusive = weak or mixed curves, or effect the other way; inactive = no such curve, though single readings can be large or run the other way.
Quantity: outcome

CCCCN(CCCC)C(=O)N(CCCC)CCCC :: inactive
CC(=O)OCC(C)OC(C)=O (stereo not drawn) :: inactive
Cc1ccc2oc(CN(Cc3ccccc3)C(=O)Nc3c(F)cc(F)cc3F)c(-c3ccc(Cl)cc3)c2c1 :: inactive

----------
# Target desc: Nuclear receptor subfamily 1 group I member 2 (Homo sapiens)
# Test description: Human pregnane X receptor (PXR) small molecule agonists, qHTS assay (AID 1346982); note: nearly all actives have a fitted effect of over 35% in size
# Test settings: PXR-Luc HepG2, CYP3A4 luciferase reporter, 24 h; series mostly up to 92.4 µM
Records with an inconclusive call do not appear. Calls of active or inactive are those of the source. Calls come from the whole dose curve; as a rule, active = well fitted activation curve with a large enough effect in the repeat runs; inconclusive = weak or mixed curves; inactive = no such curve, though single readings can be large or run the other way.
The reply should be one of these categories: active, inactive

OCc1c[nH]c2ccccc12 :: active

Q: Would you mind telling me which call this test gave Cc1ccc(O)c(C(C)(C)C)c1 ?
Result: inactive

Q: CCc1cc(Cc2cc(CC)cc(C(C)(C)C)c2O)c(O)c(C(C)(C)C)c1 , same question.
Result: active

Q: CCCCCCCC[N+](CCCCCCCC)(CCCCCCCC)CCCCCCCC , same question.
Result: active

Q: CCCCCCCC[P+](CCCCCCCC)(CCCCCCCC)CCCCCCCC , same question.
Result: active

----------
# Test description: qHTS RealTime-Glo MT Cell Viability Assay in HEK293 cells - 24 hour (AID 1224886); note: nearly all actives have a fitted effect of over 50% in size
# Test settings: RealTime-Glo luminescence; series mostly up to 76.8 µM
Inconclusive results are not listed. The source made the active and inactive calls. Calls follow the shape of the dose curve; as a rule, active = well fitted cell-killing curve with a large enough effect in the repeat runs; inconclusive = weak or mixed curves, or effect the other way; inactive = flat fitted curve, though single readings scatter.
The reply should be one of these categories: 1 for active, -1 for inactive

Worked cases, answers included:
CCCCC(CC)CN=C(N)NC(N)=NCCCCCCN=C(N)NC(N)=NCC(CC)CCCC (stereo unspecified) :: 1
O=C(OCC1CO1)C1CCCCC1C(=O)OCC1CO1 (stereo unspecified) :: -1
O=C(Nc1cccc(C(F)(F)F)c1)c1cc(Br)cc(Br)c1O :: 1
NC(=O)C1(N2CCCCC2)CCN(CCCN2c3ccccc3CCc3ccc(Cl)cc32)CC1 :: 1
CCCCN1C(=O)[C@@H]([C@H](O)C2CCCCC2)NC(=O)C12CCN(Cc1ccc(Oc3ccc(C(=O)O)cc3)cc1)CC2 :: -1

Let's switch to this compound now.
Q: Would you mind telling me which call this test gave O=C(O)c1c(Cl)cccc1Cl ?
Result: -1

----------
# Test description: qHTS assay to identify small molecule antagonists of the sonic hedgehog signaling (Shh) pathway - cell viability counter screen (AID 1259367); note: nearly all actives have a fitted effect of over 55% in size
# Test settings: NIH/3T3 Gli1-Luc viability, CellTiter-Fluor, 24 h; series mostly up to 42.5 µM
Results filed as inconclusive are left out. Calls of active or inactive are those of the source. Calls follow the shape of the dose curve; as a rule, active = well fitted cell-killing curve with a large enough effect in the repeat runs; inconclusive = weak or mixed curves, or effect the other way; inactive = no such curve, though single readings can be large or run the other way.
The reply should be one of these categories: active, inactive

Worked cases, answers included:
O=c1[nH]sc2cc(Cl)ccc12 :: inactive
Clc1ccc(C(Cn2ccnc2)OCc2ccc(Sc3ccccc3)cc2)c(Cl)c1 (stereo unspecified) :: inactive
CC(C)(C)NC(=O)[C@@H]1C[C@@H]2CCCC[C@@H]2CN1C[C@@H](O)[C@H](Cc1ccccc1)NC(=O)[C@H](CC(N)=O)NC(=O)c1ccc2ccccc2n1 :: active
Cc1cc(O)c(C(C)(C)C)cc1Sc1cc(C(C)(C)C)c(O)cc1C :: active
C[C@]12CCC(=O)C=C1CC[C@@H]1[C@@H]2[C@@H](O)C[C@@]2(C)[C@H]1CC[C@]2(O)C(=O)COC(=O)CCC(=O)O :: inactive

Let's switch to this molecule now.
Q: Would you mind telling me which call this test gave O=[N+]([O-])c1cc([N+](=O)[O-])c2ccc(S(=O)(=O)O)cc2c1O ?
Result: active

----------
# Test description: A CellTox Green Cytotoxicity Assay to monitor cytotoxicity in HEK293 cells - 0 hour (AID 1224869); note: nearly all actives have a fitted effect of over 50% in size
# Test settings: CellTox Green fluorescence; series mostly up to 76.8 µM
Calls of active or inactive are those of the source. Calls follow the shape of the dose curve; as a rule, active = well fitted activation curve with a large enough effect in the repeat runs; inconclusive = weak or mixed curves; inactive = flat fitted curve, though single readings scatter.
Quantity: outcome

Some compounds with known outcome results, for comparison:
CCC(N)(CO)CO :: inactive
C/C(=C(/OCCOc1ccc(Cl)cc1)c1ccc(Cl)cc1Cl)n1ccnc1 :: inactive
CCCCCCCCCCCC(=O)NCCCN(C)C :: inactive
O=C1Cc2cc(CCN3CCN(c4nsc5ccccc45)CC3)c(Cl)cc2N1 :: inactive
CCC(Cl)C(Cl)C(Cl)CC(Cl)C(Cl)C(C)Cl (centres undefined) :: inactive

Q: I have this compound here, O=C(O)c1cc(O)c2c(c1)C(=O)c1cccc(O)c1C2=O , and I need its recorded outcome.
Result: inactive

Q: CC(C)OC(=O)c1cc2c(OCC(O)CNC(C)(C)C)cccc2[nH]1 (centres undefined) , same question.
Result: inactive

Q: c1cc(C(c2ccc(OCC3CO3)cc2)c2ccc(OCC3CO3)cc2)ccc1OCC1CO1 (centres undefined) , same question.
Result: inactive

Q: CC(C)(C)c1ccc(C(=O)O)cc1 , same question.
Result: inactive

Q: CCN(CCC#N)c1ccc(N=Nc2c(Cl)cc([N+](=O)[O-])cc2Cl)cc1 , same question.
Result: inactive

Q: O=C(N/N=C/c1ccccc1O)c1ccncc1 , same question.
Result: inactive

Q: c1ccc(CSCc2ccccc2)cc1 , same question.
Result: inactive

Q: CC(C)(C)NC(=O)[C@@H]1C[C@@H]2CCCC[C@@H]2CN1C[C@@H](O)[C@H](Cc1ccccc1)NC(=O)[C@H](CC(N)=O)NC(=O)c1ccc2ccccc2n1 , same question.
Result: inactive

Q: Cc1[nH]nc2c1N=C(c1ccccc1Cl)c1cc([N+](=O)[O-])ccc1N2 , same question.
Result: inactive

Q: Nc1ccccc1O , same question.
Result: inactive

Q: Cc1cc2c(cc1C(F)(F)F)N(C(=O)Nc1ccc(Oc3cccnc3C)nc1)CC2 , same question.
Result: inactive

Q: CCCCCCCC/C=C\CCCCCCCCOCCO , same question.
Result: inactive

Q: CCCCN1CCCC[C@H]1C(=O)Nc1c(C)cccc1C , same question.
Result: inactive

Q: O=[N+]([O-])c1ccccc1Nc1ccccc1 , same question.
Result: inactive

----------
# Target desc: Nuclear receptor subfamily 1 group I member 2 (Homo sapiens)
# Test description: Human pregnane X receptor (PXR) small molecule agonists, qHTS assay (AID 1346982); note: nearly all actives have a fitted effect of over 35% in size
# Test settings: PXR-Luc HepG2, CYP3A4 luciferase reporter, 24 h; series mostly up to 92.4 µM
Inconclusive results are not listed. Activity calls are given as the source filed them. Calls come from the whole dose curve; as a rule, active = well fitted activation curve with a large enough effect in the repeat runs; inconclusive = weak or mixed curves; inactive = no such curve, though single readings can be large or run the other way.
The reply should be one of these categories: 1.0 for active, 0.0 for inactive

Worked cases, answers included:
CC(=O)N1CCN(c2ccc(OC[C@H]3CO[C@](Cn4ccnc4)(c4ccc(Cl)cc4Cl)O3)cc2)CC1 :: 0.0
O=C(OCC(COC(=O)c1ccccc1)(COC(=O)c1ccccc1)COC(=O)c1ccccc1)c1ccccc1 :: 0.0
CCCCCCCCCCCCCCCC(=O)OC[C@H](O)[C@H]1OC(=O)C(O)=C1O :: 0.0
O=c1[nH]sc2ccccc12 :: 1.0
CCC(N)(CO)CO :: 0.0

Q: Would you mind telling me which call this test gave COC(=O)c1cc(Cl)ccc1OC ?
Result: 0.0

Q: CC(=O)SC[C@@H](Cc1ccccc1)C(=O)NCC(=O)OCc1ccccc1 , same question.
Result: 0.0

Q: CCCCCCCCCCCC(=O)NCCCN(C)C , same question.
Result: 1.0

Q: CCCC/C=C/CCCCO , same question.
Result: 0.0

Q: CCCCN(CCCC)C(=O)N(CCCC)CCCC , same question.
Result: 0.0
